test system: A673/TR/shEF; experiment: cell viability (LOESS-normalised, relative to median of negative controls) (log2 ratio); higher = more viable cells (less compound effect), active = hit call of the paper (over 3 MAD below the median); conditions: 0.25 µM; library screen: screen1; EWS-FLI1 expression: low (doxycycline-induced shRNA knockdown); treatment time: 72 h
Among all 3,200 compounds or so, about 300 (9.4%) showed activity. This excerpt belongs to a sample that is enriched for actives.
Possible outcomes: T for active, F for inactive

compound	target-desc	class-name
CO[C@H]1[C@H](O)[C@H](O[C@H]2CC[C@@]3(C=O)[C@H](CC[C@@H]4[C@@H]3CC[C@]3(C)[C@@H](C5=CC(=O)OC5)CC[C@]43O)C2)O[C@@H](C)[C@@H]1O	A673/TR/shEF	T
O=C(O)C1C2CCC(O2)C1C(=O)O (stereo not drawn)	A673/TR/shEF	F
CC1(C)C(=O)C=C[C@]2(C)[C@H]3CC[C@@]4(C)[C@H](c5ccoc5)OC(=O)[C@H]5O[C@]54[C@]3(C)[C@H](O)C[C@@H]12	A673/TR/shEF	F
COC(=O)COc1ccc(Cl)cc1Cl	A673/TR/shEF	F
C[C@H]1C[C@@H](O)[C@]2(O)[C@@]13CC(=O)OC[C@@]2(C)[C@](C)(O)C(=O)C3	A673/TR/shEF	F
CN(C)[C@@H]1C(=O)C(C(N)=O)=C(O)[C@@]2(O)C(=O)C3=C(O)c4c(O)cccc4[C@@](C)(O)[C@H]3C[C@@H]12	A673/TR/shEF	F
CC1CC(Cl)CCC1C(=O)OC(C)(C)C (stereo not drawn)	A673/TR/shEF	F
CO[C@H]1[C@H](O)[C@H](O[C@H]2CC[C@@]3(C)[C@H](CC[C@@H]4[C@@H]3CC[C@]3(C)[C@@H](C5=CC(=O)OC5)CC[C@]43O)C2)O[C@@H](C)[C@@H]1O	A673/TR/shEF	F

* * *

tested on: A673/TR/shEF; test: cell viability (LOESS-normalised, relative to median of negative controls) (log2 ratio); higher = more viable cells (less compound effect), active = hit call of the paper (over 3 MAD below the median); details: 0.25 µM; library screen: screen1; EWS-FLI1 expression: low (doxycycline-induced shRNA knockdown); treatment time: 72 h
About 300 (9.4%) of roughly 3,200 compounds showed activity. The entries come from a sample that favours actives as a whole.
# reported cell viability (log2); entries follow

input-smiles	cell viability (log2)
COc1cc2c(cc1OC)C(=O)c1ccc(OC)c(OC)c1OCC(=O)C2	0.0329
CCC(=O)Nc1ccc(Cl)c(Cl)c1	-0.0209
COc1cc2c(c(OC)c1OC)-c1ccc(OC)c(=O)cc1[C@@H](NC(C)=O)CC2	-0.935
N#C/C(=C\c1ccc(O)cc1)C(=O)O	0.0904
CCOP(=S)(OCC)Oc1ccc2c(C)c(Cl)c(=O)oc2c1	-0.0116
CNC(=O)O/N=C(\C)SC	0.0661
Cc1ccc2cc3c(ccc4ccccc43)c3c2c1CC3	-0.00243
COc1ccc([C@H]2Oc3c(I)c(OC)cc(OC)c3C[C@@H]2O)cc1OC	0.027
COc1ccc2c(c1O)-c1c(OC)c(OC)cc3c1[C@H](C2)N(C)CC3	-0.0109
CC1=C2[C@H]3OC(=O)[C@@H](C)[C@@H]3CC[C@@]2(C)C=CC1=O	-0.0349
C[C@]12CC[C@H]3[C@@H](CCC4=CC(=O)CC[C@@]43C)[C@@H]1CC[C@@H]2O	-0.0159

* * *

test system: A673/TR/shEF; experiment: cell viability (LOESS-normalised, relative to median of negative controls) (log2 ratio); higher = more viable cells (less compound effect), active = hit call of the paper (over 3 MAD below the median); settings: 0.25 µM; library screen: screen1; EWS-FLI1 expression: high (no doxycycline); treatment time: 72 h
The whole screen tested about 3,200 compounds, of which about 300 (9.4%) showed activity. The sample holds actives, similar compounds and a random draw of the others, so the mix is not that of the screen.

compound	cell viability (log2)
ClC1=C(Cl)C2(Cl)C3C(Cl)C=CC3C1(Cl)C2(Cl)Cl (centres undefined)	0.152
CC[C@@]1([C@H]2O[C@H]([C@H]3O[C@@](O)(CO)[C@H](C)C[C@@H]3C)C[C@H]2C)CC[C@H]([C@@]2(C)CC[C@]3(C[C@H](O)[C@@H](C)[C@@H]([C@H](C)[C@H](OC)[C@@H](C)C(=O)O)O3)O2)O1	-0.0386
CO[C@@H]1C[C@@H](C[C@H]2CC[C@H](C)[C@H]([C@@H](C)C(=O)O)O2)O[C@]2(O[C@](C)([C@H]3CC[C@@](C)([C@@H]4O[C@@H]([C@H]5O[C@@](O)(CO)[C@H](C)C[C@@H]5C)C[C@@H]4C)O3)C[C@H]2C)[C@@H]1C	0.0701
C[C@]12CC[C@H]3[C@@H](CCC4=CC(=O)CC[C@@]43C)[C@@H]1CC[C@@H]2O	0.0751

* * *

system: A673/TR/shEF; assay: cell viability (LOESS-normalised, relative to median of negative controls) (log2 ratio); higher = more viable cells (less compound effect), active = hit call of the paper (over 3 MAD below the median); settings: 0.25 µM; library screen: screen2; EWS-FLI1 expression: low (doxycycline-induced shRNA knockdown); treatment time: 72 h
About 300 (9.4%) of roughly 3,200 compounds showed activity. Shown is part of a subset that was picked to be rich in actives.
# reported cell viability (log2); entries follow
endpoint-name: cell viability (log2)

compound	endpoint-name	measurement
S=C(NC1CCCCC1)N1CCC(c2cnc[nH]2)CC1	cell viability (log2)	0.0827 (inactive)
C[C@]12CC[C@H](O)CC1=CC[C@@H]1[C@@H]2CC[C@]2(C)C(=O)CC[C@@H]12	cell viability (log2)	0.0866 (inactive)
C[C@@]12C(=O)OC(=O)[C@]1(C)[C@H]1CC[C@@H]2O1	cell viability (log2)	0.0884 (inactive)
C[N+](C)(C)CCOC(=O)CBr	cell viability (log2)	0.097 (inactive)
NC(Cc1cc(O)c(O)cc1O)C(=O)O (stereo unspecified)	cell viability (log2)	0.133 (inactive)
O=C[C@H](Cl)[C@@H](O)[C@H](O)[C@H](O)CO	cell viability (log2)	0.0253 (inactive)

* * *

test system: A673/TR/shEF; assay: cell viability (LOESS-normalised, relative to median of negative controls) (log2 ratio); higher = more viable cells (less compound effect), active = hit call of the paper (over 3 MAD below the median); details: 0.25 µM; library screen: screen1; EWS-FLI1 expression: low (doxycycline-induced shRNA knockdown); treatment time: 72 h
Among all 3,200 compounds or so, about 300 (9.4%) showed activity. The entries come from a sample that favours actives as a whole.
# reported cell viability (log2); entries follow
endpoint-name: cell viability (log2)

molecule	measurement
NCC(CC(=O)O)c1ccc(Cl)cc1 (stereo not given)	0.12
COc1cccc2c1cc([N+](=O)[O-])c1c(C(=O)O)cc3c(c12)OCO3	0.00257
COc1cc2occc2c2oc(=O)ccc12	-0.00777
CN[C@@H]1[C@@H](O)[C@@H](O[C@@H]2[C@@H](O)[C@H](O[C@H]3O[C@H](CN)CC[C@H]3N)[C@@H](N)C[C@H]2N)OC[C@]1(C)O	-0.0312
C=C(C)C(=O)/C(=C\C(=O)O)OC	0.0593

* * *

system: A673/TR/shEF; experiment: cell viability (LOESS-normalised, relative to median of negative controls) (log2 ratio); higher = more viable cells (less compound effect), active = hit call of the paper (over 3 MAD below the median); settings: 0.308 µM; library screen: screen3; EWS-FLI1 expression: high (no doxycycline); treatment time: 72 h
Hit rate of the full screen: of about 3,200 compounds, about 300 (9.4%) showed activity. The full list was thinned out, with actives kept by preference.
Please use t for cell viability (log2) under 0.05 and f for everything else, ties included.

compound	class-name
CN1[C@H]2CC(OC(=O)C(CO)c3ccccc3)C[C@H]1[C@H]1O[C@H]12 (stereo not given in full)	t
CC(=O)O[C@H]1C[C@@H]2CC[C@@H]3[C@H](CC[C@@]4(C)[C@H]3C[C@H]([N+]3(C)CCCCC3)[C@@H]4OC(C)=O)[C@@]2(C)C[C@@H]1[N+]1(C)CCCCC1	f
CN1[C@@H]2CC[C@H]1CC(OC(=O)C(CO)c1ccccc1)C2 (stereo not given in full)	t
CCOC(=O)c1cncn1C(C)c1ccccc1 (stereo not given)	f
C[C@]12CC[C@H](O)CC1=CC[C@@H]1[C@@H]2CC[C@]2(C)C(=O)CC[C@@H]12	f
Cc1c(N)nc(C(CC(N)=O)NCC(N)C(N)=O)nc1C(=O)NC(C(=O)NC(C)C(O)C(C)C(=O)NC(C(=O)NCCc1nc(-c2nc(C(=O)NCCC[S+](C)C)cs2)cs1)C(C)O)C(O[C@@H]1O[C@@H](CO)[C@@H](O)[C@H](O)[C@@H]1O[C@H]1O[C@H](CO)[C@@H](O)[C@H](OC(N)=O)[C@@H]1O)c1cnc[nH]1 (stereo not given in full)	f
O=P1(N(CCCl)CCCl)NCCCO1 (stereo not given)	f
C[C@]12CC[C@H]3[C@@H](CCC4=CC(=O)CC[C@@]43C)[C@@H]1CC[C@@H]2OC(=O)CCC1CCCC1	t
Cc1cccc(C)c1NC(=O)CN1CCCC1=O	f
Cn1cc(C2=C(c3cn(C4CCN(Cc5ccccn5)CC4)c4ccccc34)C(=O)NC2=O)c2ccccc21	t
